These measurements were taken from patent US20220096653A1.

- TESTED_SYSTEM: T1, CEACAM5 (R&D Systems, 4128-CM-050) (human, UniProt P06731 35-685)
- T1 construct: Immobilised on the ELISA plate; also called human CEACAM5
- T1 sequence (looked up): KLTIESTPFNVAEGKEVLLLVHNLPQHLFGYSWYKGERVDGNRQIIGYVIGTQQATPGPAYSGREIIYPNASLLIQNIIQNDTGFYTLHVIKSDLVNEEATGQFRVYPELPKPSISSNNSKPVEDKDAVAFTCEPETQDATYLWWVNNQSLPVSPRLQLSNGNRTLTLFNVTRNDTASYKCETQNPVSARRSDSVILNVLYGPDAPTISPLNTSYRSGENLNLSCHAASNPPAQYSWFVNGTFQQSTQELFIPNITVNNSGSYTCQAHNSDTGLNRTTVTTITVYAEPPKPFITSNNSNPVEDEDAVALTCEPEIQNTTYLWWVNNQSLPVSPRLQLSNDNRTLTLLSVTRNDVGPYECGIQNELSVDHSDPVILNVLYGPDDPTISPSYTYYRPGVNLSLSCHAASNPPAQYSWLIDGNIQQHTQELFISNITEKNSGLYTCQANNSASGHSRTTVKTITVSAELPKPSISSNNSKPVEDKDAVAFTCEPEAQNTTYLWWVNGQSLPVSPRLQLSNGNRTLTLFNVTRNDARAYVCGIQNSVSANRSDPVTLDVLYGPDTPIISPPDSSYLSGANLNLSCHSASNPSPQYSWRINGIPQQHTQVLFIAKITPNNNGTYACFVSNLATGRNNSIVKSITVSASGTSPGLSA
- EXPERIMENT_NOTES: ELISA on immobilised CEACAM5, 4-parameter fit, duplicate
- Method: Each anti-human CEACAM5 antibody Fab fragment conjugate prepared in Example 2 was subjected to ELISA to evaluate the binding activity thereof to CEACAM5. […] The substrate was incubated at room temperature for 15 minutes, and then a signal value thereof was measured using an Envision counter (PerkinElmer, Inc.). The test for each antibody was carried out in duplicate, and an EC₅₀ value was calculated using a 4-parameter logistic curve model.
ASSAY_READOUT: pEC50
Scale note: pEC50 = -log10(concentration in M).

*Q* What measured pEC50 goes with (Y-S1-X)p-Fab^2 with Y Gd/DOTA, S1 -NH-CH2-(1,4-Ph)-C(═O)-, X -Met-Gly-Lys*-Z2(#S)- (Fab, V domains shown, labeling may sit on this chain; sites not stated; labeling portion (MW 1190) on amino groups of the Fab, sites and chain not stated; 1-3 per Fab by MS, also called Ex-No 38; conjugate 38) VH: EVQLVESGGGLVQPGGSLRLSCAASGFNIRDTYMHWVRQAPGKGLEWVARIDPANGNSRYVPKFQGRFTISADTSRNTAYLQMNSLRAEDTAVYYCAPFGYYVSDYAMAYWGQGTLVTVSS VL: DIQLTQSPSSLSASVGDRVTITCRAGESVDIFGVGFLHWYQQKPGKAPKLLIYRASNLESGIPSRFSGSGSRTDFTLTISSLQPEDFATYYCQQTNEDPYTFGQGTKVEIKR ?
*A* 9.74

*Q* I would be grateful if you could share the reported pEC50 for (Y-S1-X)p-Fab^2 with Y Gd/DOTA, S1 spacer (a), X -Gly-Lys*-Z2(#N)- (Fab, V domains shown, labeling may sit on this chain; sites not stated; labeling portion (MW 936) on amino groups of the Fab, sites and chain not stated; 1-3 per Fab by MS, also called Ex-No 23; conjugate 23) VH: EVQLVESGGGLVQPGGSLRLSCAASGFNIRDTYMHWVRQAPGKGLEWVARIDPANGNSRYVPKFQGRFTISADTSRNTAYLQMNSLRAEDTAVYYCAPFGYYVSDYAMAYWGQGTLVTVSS VL: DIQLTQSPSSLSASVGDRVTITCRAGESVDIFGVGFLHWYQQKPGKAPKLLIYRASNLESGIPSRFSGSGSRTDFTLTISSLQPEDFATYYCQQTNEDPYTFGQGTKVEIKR .
*A* 9.48

*Q* Which value of pEC50 has been reported for (Y-S1-X)p-Fab^2 with Y Gd/DOTA, S1 spacer (c), X -Gly-Lys*-Z2(#N)- (Fab, V domains shown, labeling may sit on this chain; sites not stated; labeling portion (MW 908) on amino groups of the Fab, sites and chain not stated; 1-3 per Fab by MS, also called Ex-No 28; conjugate 28) VH: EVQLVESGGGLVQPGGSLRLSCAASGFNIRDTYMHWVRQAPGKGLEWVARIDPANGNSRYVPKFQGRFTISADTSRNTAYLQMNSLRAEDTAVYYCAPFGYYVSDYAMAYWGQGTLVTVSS VL: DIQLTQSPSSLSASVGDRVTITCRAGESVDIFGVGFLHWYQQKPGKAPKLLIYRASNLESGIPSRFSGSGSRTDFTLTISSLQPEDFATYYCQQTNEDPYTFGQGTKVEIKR in the records?
*A* 9.44
